Source of measurements: the supplement of paper PMC10567573

B1: GAGE1 (parent)
chain: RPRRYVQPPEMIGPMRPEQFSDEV

variants of: B1; assay: protein stability index of a GFP-peptide fusion (GPS, HEK-293T) (PSI 1-6); higher = more stable; conditions: c terminus: a fixed tail appended;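 note: lentivirally expressed fusions sorted by FACS into six bins by GFP to DsRed ratio, PSI derived from sequencing read proportions per bin multiplied by bin number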
QUANTITY: protein stability index

- VARIANT_KEY: "F20L"
  protein stability index: 4.5

Input: Param item = I12A ; retrieve measured protein stability index.
Output: 4.42

Input: Param item = V24M ; retrieve measured protein stability index.
Output: 3.74

Input: Param item = P14A ; retrieve measured protein stability index.
Output: 4.38

Input: Param item = S21W ; retrieve measured protein stability index.
Output: 3.01

Input: Param item = R3M ; retrieve measured protein stability index.
Output: 3.89

Input: Param item = R16G ; retrieve measured protein stability index.
Output: 4.17

Input: Param item = P9F ; retrieve measured protein stability index.
Output: 3.79

Input: Param item = P2D ; retrieve measured protein stability index.
Output: 3.98

Input: Param item = I12T ; retrieve measured protein stability index.
Output: 4.53

Input: Param item = P8L ; retrieve measured protein stability index.
Output: 3.31

Input: Param item = G13W ; retrieve measured protein stability index.
Output: 3.56

Input: Param item = I12G ; retrieve measured protein stability index.
Output: 4.69

Input: Param item = Q19Y ; retrieve measured protein stability index.
Output: 3.92

Input: Param item = R3D ; retrieve measured protein stability index.
Output: 4.28

Input: Param item = P17M ; retrieve measured protein stability index.
Output: 3.88

Input: Param item = Y5E ; retrieve measured protein stability index.
Output: 4.55

Input: Param item = P9H ; retrieve measured protein stability index.
Output: 3.82

Input: Param item = E18P ; retrieve measured protein stability index.
Output: 3.6

Input: Param item = R4V ; retrieve measured protein stability index.
Output: 3.89

Input: Param item = V24C ; retrieve measured protein stability index.
Output: 3.35

Input: Param item = M15Y ; retrieve measured protein stability index.
Output: 4

Input: Param item = P2I ; retrieve measured protein stability index.
Output: 2.5

Input: Param item = R16Q ; retrieve measured protein stability index.
Output: 4.26
